Data origin, for the record: patent US4396613A

Test system: Staphylococcus aureus V41
Experiment: standard agar-dilution assay (MIC)
Type: cell-based
Details: Staphylococcus aureus V41, penicillin-resistant strain, unit assumed
Provide the reported MIC of each item.

Asked: Form field: reported MIC of CCC1OC(=O)CC(O)C(C)C(OC2OC(C)C(OC3CC(C)(O)C(O)C(C)O3)C(N(C)C)C2OC(C)=O)C(CC=O)CC(C)C(=O)C=CC(C)=CC1COC(=O)Cc1cc(OC)ccc1OC (stereo not shown) [Compound 20]
Given back: 0.5 µg/mL

Asked: Form field: reported MIC of CCC1OC(=O)CC(O)C(C)C(OC2OC(C)C(OC3CC(C)(O)C(O)C(C)O3)C(N(C)C)C2OC(C)=O)C(CC=O)CC(C)C(=O)C=CC(C)=CC1COC(=O)Cc1ccc(Cl)cc1 (stereo not shown) [Compound 14]
Given back: 2 µg/mL

Asked: Form field: reported MIC of CCC1OC(=O)CC(O)C(C)C(OC2OC(C)C(OC3CC(C)(O)C(O)C(C)O3)C(N(C)C)C2OC(C)=O)C(CC=O)CC(C)C(=O)C=CC(C)=CC1COC(=O)C=Cc1ccccc1 (stereo not shown) [Compound 11]
Given back: 0.5 µg/mL

Asked: Form field: reported MIC of CCC1OC(=O)CC(O)C(C)C(OC2OC(C)C(OC3CC(C)(O)C(O)C(C)O3)C(N(C)C)C2OC(C)=O)C(CC=O)CC(C)C(=O)C=CC(C)=CC1COC(=O)COc1ccccc1 (stereo not shown) [Compound 12, 2'-O-Acetyl-23-O-phenoxyacetyl-DMT]
Given back: 0.25 µg/mL

Asked: Form field: reported MIC of CCC1OC(=O)CC(O)C(C)C(OC2OC(C)C(OC3CC(C)(O)C(O)C(C)O3)C(N(C)C)C2OC(C)=O)C(CC=O)CC(C)C(=O)C=CC(C)=CC1COC(=O)CCc1ccccc1 (stereo not shown) [Compound 13]
Given back: 1 µg/mL

Asked: Form field: reported MIC of CCC1OC(=O)CC(O)C(C)C(OC2OC(C)C(OC3CC(C)(O)C(O)C(C)O3)C(N(C)C)C2O)C(CC=O)CC(C)C(=O)C=CC(C)=CC1COC(=O)OC (stereo not shown) [Compound 25]
Given back: 0.5 µg/mL

Asked: Form field: reported MIC of CCC1OC(=O)CC(O)C(C)C(OC2OC(C)C(OC3CC(C)(O)C(O)C(C)O3)C(N(C)C)C2OC(=O)Cc2ccccc2)C(CC=O)CC(C)C(=O)C=CC(C)=CC1COC(=O)Cc1ccccc1 (stereo not shown) [Compound 17]
Given back: 1 µg/mL

Asked: Form field: reported MIC of CCC1OC(=O)CC(O)C(C)C(OC2OC(C)C(OC3CC(C)(O)C(O)C(C)O3)C(N(C)C)C2OC(C)=O)C(CC=O)CC(C)C(=O)C=CC(C)=CC1COC(=O)OC (stereo not shown) [Compound 24]
Given back: 0.5 µg/mL

Asked: Form field: reported MIC of CCC1OC(=O)CC(O)C(C)C(OC2OC(C)C(OC3CC(C)(O)C(O)C(C)O3)C(N(C)C)C2OC(C)=O)C(CC=O)CC(C)C(=O)C=CC(C)=CC1COC(=O)C12CC3CC(CC(C3)C1)C2 (stereo not shown) [Compound 23]
Given back: 2 µg/mL

Asked: Form field: reported MIC of CCC1OC(=O)CC(O)C(C)C(OC2OC(C)C(OC3CC(C)(O)C(O)C(C)O3)C(N(C)C)C2OC(C)=O)C(CC=O)CC(C)C(=O)C=CC(C)=CC1COC(=O)NCc1ccccc1 (stereo not shown) [Compound 30]
Given back: 1 µg/mL

Asked: Form field: reported MIC of CCC1OC(=O)CC(O)C(C)C(OC2OC(C)C(OC3CC(C)(O)C(O)C(C)O3)C(N(C)C)C2O)C(CC=O)CC(C)C(=O)C=CC(C)=CC1COC(=O)NCCCO (stereo not shown) [Compound 26]
Given back: 2 µg/mL

Asked: Form field: reported MIC of CCC1OC(=O)CC(O)C(C)C(OC2OC(C)C(OC3CC(C)(O)C(O)C(C)O3)C(N(C)C)C2O)C(CC=O)CC(C)C(=O)C=CC(C)=CC1COC(=O)N1CCC(O)CC1 (stereo not shown) [Compound 28]
Given back: 1 µg/mL

Asked: Form field: reported MIC of CCC1OC(=O)CC(O)C(C)C(OC2OC(C)C(OC3CC(C)(O)C(O)C(C)O3)C(N(C)C)C2OC(C)=O)C(CC=O)CC(C)C(=O)C=CC(C)=CC1COC(=O)Cc1ccccc1 (stereo not shown) [Compound 9, 2'-O-Acetyl-23-O-phenylacetyl-DMT]
Given back: 0.5 µg/mL

Asked: Form field: reported MIC of CCC(=O)OCC1C=C(C)C=CC(=O)C(C)CC(CC=O)C(OC2OC(C)C(OC3CC(C)(O)C(O)C(C)O3)C(N(C)C)C2OC(=O)CC)C(C)C(O)CC(=O)OC1CC (stereo not shown) [Compound 3, 2',23-Di-O-Propionyl-DMT]
Given back: 0.5 µg/mL

Asked: Form field: reported MIC of CCC1OC(=O)CC(O)C(C)C(OC2OC(C)C(OC3CC(C)(O)C(O)C(C)O3)C(N(C)C)C2OC(C)=O)C(CC=O)CC(C)C(=O)C=CC(C)=CC1COC(=O)C(C)(C)C (stereo not shown) [Compound 8]
Given back: 0.5 µg/mL

Asked: Form field: reported MIC of CCC(=O)OCC1C=C(C)C=CC(=O)C(C)CC(CC=O)C(OC2OC(C)C(OC3CC(C)(O)C(O)C(C)O3)C(N(C)C)C2OC(C)=O)C(C)C(O)CC(=O)OC1CC (stereo not shown) [Compound 5, 2'-O-Acetyl-23-O-propionyl DMT]
Given back: 0.5 µg/mL

Asked: Form field: reported MIC of CCC1OC(=O)CC(O)C(C)C(OC2OC(C)C(OC3CC(C)(O)C(O)C(C)O3)C(N(C)C)C2OC(C)=O)C(CC=O)CC(C)C(=O)C=CC(C)=CC1COC(=O)n1ccnc1 (stereo not shown) [Compound 21]
Given back: 2 µg/mL

Asked: Form field: reported MIC of CCC1OC(=O)CC(O)C(C)C(OC2OC(C)C(OC3CC(C)(O)C(O)C(C)O3)C(N(C)C)C2OC(C)=O)C(CC=O)CC(C)C(=O)C=CC(C)=CC1COC(=O)Cc1ccc([N+](=O)[O-])cc1 (stereo not shown) [Compound 15]
Given back: 0.5 µg/mL

Asked: Form field: reported MIC of CCC1OC(=O)CC(O)C(C)C(OC2OC(C)C(OC3CC(C)(O)C(O)C(C)O3)C(N(C)C)C2OC(C)=O)C(CC=O)CC(C)C(=O)C=CC(C)=CC1COC(=O)CCCCc1ccccc1 (stereo not shown) [Compound 18]
Given back: 2 µg/mL
